Assay: Cmax in rhesus monkey plasma at 6150 ug, im by LC-MS method
Assay type: ADME, organism-based, Macaca mulatta
Set-up: dose 6150 ug, route intramuscular
experimental-endpoint: Cmax (µg/mL)

>>> df
                              smiles_record  reported_result
0  CS(=O)(=O)N1CCC(Oc2ccc(CC(=O)N3CCC(N4C(=O)CCc5ccccc54)CC3)c(OCCF)c2)CC1             0.74

====

Experiment: Tmax in rhesus monkey CSF at 7690 ug administered via intranasal nebulization for 8 mins by LC-MS method
Type: ADME, Macaca mulatta, Cerebrospinal fluid
Settings: inhaled or intranasal
experimental-endpoint: Tmax (h)

>>> print(df.to_string())
                              smiles_record  reported_result
0  CS(=O)(=O)N1CCC(Oc2ccc(CC(=O)N3CCC(N4C(=O)CCc5ccccc54)CC3)c(OCCF)c2)CC1                1
